Source: patent US20250214976A1

Biological target: human GPR35 (Homo sapiens, UniProt Q9HC97)
Sequence (Q9HC97 whole entry): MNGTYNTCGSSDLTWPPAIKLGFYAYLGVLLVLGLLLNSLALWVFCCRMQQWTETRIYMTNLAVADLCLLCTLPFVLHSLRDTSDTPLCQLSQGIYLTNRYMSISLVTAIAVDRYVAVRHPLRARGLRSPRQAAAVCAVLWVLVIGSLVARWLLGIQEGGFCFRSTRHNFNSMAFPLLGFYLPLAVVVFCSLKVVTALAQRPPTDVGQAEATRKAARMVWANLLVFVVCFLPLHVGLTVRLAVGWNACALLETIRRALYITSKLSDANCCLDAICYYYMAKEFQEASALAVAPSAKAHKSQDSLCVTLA
Assay: Luciferase Reporter Assay (YAP responsive element) in HEK293 cells stably transfected with human GPR35
Conditions: overnight incubation
MEASURED_PARAMETER: IC50

>>> df
                                   compound                       experimental_system             val
0  O=C(Nc1ccc(N2CC3C(C2)C3(F)F)c(F)c1)c1coc2cc(-c3nnn[nH]3)c(F)cc12 (stereo not drawn)  human GPR35 (Homo sapiens, UniProt Q9HC97)  100 to 1000 nM
1  CC1(Oc2ccc(NC(=O)c3coc4cc(-c5nnn[nH]5)ccc34)cc2F)CC1  human GPR35 (Homo sapiens, UniProt Q9HC97)        ≤ 100 nM
2  O=C(Nc1ccc(OC2CC(F)(F)C2)c(F)c1)c1coc2cc(-c3nnn[nH]3)c(F)cc12  human GPR35 (Homo sapiens, UniProt Q9HC97)  100 to 1000 nM
3  O=C(Nc1ccc(C2CCCC2)c(F)c1)c1coc2cc(-c3nnn[nH]3)ccc12  human GPR35 (Homo sapiens, UniProt Q9HC97)        ≤ 100 nM
4  O=C(Nc1ccc(O[C@@H]2CCC(F)(F)C2)c(F)c1)c1coc2cc(-c3nnn[nH]3)c(F)cc12 (single isomer, unassigned)  human GPR35 (Homo sapiens, UniProt Q9HC97)        ≤ 100 nM

# input Could you tell me which IC50 is on file for "O=C(Nc1ccc(OCc2cc(Cl)cs2)cc1)c1coc2cc(-c3nnn[nH]3)c(F)cc12" ?
# output ≤ 100 nM

----------
Biological target: human GPR35 (Homo sapiens, UniProt Q9HC97)
Test: Luciferase Reporter Assay (YAP responsive element) in HEK293 cells stably transfected with human GPR35
Conditions: overnight incubation
Procedure: HEK293 cells stably transfected with human GPR35 were maintained in Dulbecco's Modified Eagle Medium (DMEM) supplemented with 10% FBS and 300 μg/mL Zeocin and 200 μg/mL Hygromycin at 37° C., 10% CO2. […] IC50 was determined by fitting the dose-response data to a four-parameter logistic curve using GraphPad Prism. […]
pIC50: −log10 of the molar value.
Quick reference: pIC50 of the listed items.

For orientation, consider the following solved cases.
>>> print(df.to_string())
                                   compound                       experimental_system           val
0  O=C(Nc1ccc(OCc2cccc(F)c2Cl)cc1)c1coc2cc(-c3nnn[nH]3)c(F)cc12 [Compound 1-44]  human GPR35 (Homo sapiens, UniProt Q9HC97)  6.00 to 7.00
1  O=C(Nc1ccc(OCc2ccc(Cl)cc2Cl)cc1)c1coc2cc(-c3nnn[nH]3)c(F)cc12 [Compound 1-19]  human GPR35 (Homo sapiens, UniProt Q9HC97)  6.00 to 7.00
2  O=C(Nc1ccc(OCc2cc(F)c(Cl)c(F)c2)cc1)c1coc2cc(-c3nnn[nH]3)c(F)cc12 [Compound 1-53]  human GPR35 (Homo sapiens, UniProt Q9HC97)        ≥ 7.00
3  O=C(Nc1ccc(C2CCCC2)c(F)c1)c1csc2cc(-c3nnn[nH]3)ccc12 [Compound 1-58]  human GPR35 (Homo sapiens, UniProt Q9HC97)        ≥ 7.00
4  C[C@H](Oc1ccc(NC(=O)c2coc3cc(-c4nnn[nH]4)c(F)cc23)cc1)c1ccc(F)cc1Cl (single isomer, unassigned) [Compound 1-25]  human GPR35 (Homo sapiens, UniProt Q9HC97)        < 6.00
5  O=C(Nc1ccc(O[C@H]2CCOC2)c(F)c1)c1coc2cc(-c3nnn[nH]3)c(F)cc12 [Compound 1-21]  human GPR35 (Homo sapiens, UniProt Q9HC97)  6.00 to 7.00
6  O=C(Nc1ccc(OCc2ccc(F)cc2Cl)c(F)c1)c1coc2cc(-c3nnn[nH]3)ccc12 [Compound 1-6]  human GPR35 (Homo sapiens, UniProt Q9HC97)  6.00 to 7.00
7  O=C(O)c1ccc2c(C(=O)Nc3ccc(OC4CCC4)c(F)c3)coc2c1 [Compound 1-3]  human GPR35 (Homo sapiens, UniProt Q9HC97)        < 6.00
8  N#Cc1ccc(COc2ccc(NC(=O)c3coc4cc(-c5nnn[nH]5)c(F)cc34)cc2)c(Cl)c1 [Compound 1-46]  human GPR35 (Homo sapiens, UniProt Q9HC97)  6.00 to 7.00
9  O=C(Nc1ccc(N2CCC[C@H]2C(F)(F)F)c(F)c1)c1coc2cc(-c3nnn[nH]3)c(F)cc12 [Compound 1-32]  human GPR35 (Homo sapiens, UniProt Q9HC97)  6.00 to 7.00

# input Missing value: pIC50, human GPR35 (Homo sapiens, UniProt Q9HC97), entry O=C(Nc1ccc(OCc2ccc(F)c(Cl)c2)cc1)c1coc2cc(-c3nnn[nH]3)c(F)cc12 [Compound 1-43] . Fill in?
# output ≥ 7.00

# input Give pIC50 (human GPR35 (Homo sapiens, UniProt Q9HC97)) of the following compound: O=C(Nc1cc(F)c(OC2CCCC2)cc1F)c1coc2cc(-c3nnn[nH]3)ccc12 [Compound 1-10]
# output ≥ 7.00

# input Report pIC50 for O=C(Nc1ccc(OC2CCCC2)c(F)c1)c1coc2c(-c3nnn[nH]3)cccc12 [Compound 1-7] tested on human GPR35 (Homo sapiens, UniProt Q9HC97).
# output < 6.00

# input Item O=C(Nc1ccc(OC2CCCC2)c(F)c1F)c1coc2cc(-c3nnn[nH]3)ccc12 [Compound 1-9] with human GPR35 (Homo sapiens, UniProt Q9HC97) - pIC50?
# output < 6.00

# input For the record NC(=O)c1cc2occ(C(=O)Nc3ccc(OCc4ccc(F)cc4Cl)cc3)c2cc1F [Compound 1-23] , what value of pIC50 is listed for human GPR35 (Homo sapiens, UniProt Q9HC97)?
# output < 6.00

# input pIC50 of O=C(Nc1ccc(C2CCCC2)c(F)c1)c1coc2cc(-c3nnn[nH]3)c(F)cc12 [Compound 1-17] on human GPR35 (Homo sapiens, UniProt Q9HC97)?
# output ≥ 7.00

# input Find pIC50 (human GPR35 (Homo sapiens, UniProt Q9HC97)) for the entry O=C(Nc1ccc(OCc2cc(Cl)c(Cl)s2)cc1)c1coc2cc(-c3nnn[nH]3)c(F)cc12 [Compound 1-57]
# output 6.00 to 7.00

# input Fill in the recorded pIC50 for this compound, with human GPR35 (Homo sapiens, UniProt Q9HC97) as test system: O=C(Nc1ccc(OCc2cc(F)c(F)cc2Cl)cc1)c1coc2cc(-c3nnn[nH]3)c(F)cc12 [Compound 1-50]
# output 6.00 to 7.00

# input Notebook: pull reported pIC50 for human GPR35 (Homo sapiens, UniProt Q9HC97), entry N#Cc1cc(F)ccc1COc1ccc(NC(=O)c2coc3cc(-c4nnn[nH]4)c(F)cc23)cc1 [Compound 1-48]
# output 6.00 to 7.00

----------
Target: human GPR35 (Homo sapiens, UniProt Q9HC97)
Assay: Luciferase Reporter Assay (YAP responsive element) in HEK293 cells stably transfected with human GPR35
Details: overnight incubation
pIC50: −log10 of the molar value.
MEASURED_PARAMETER: pIC50

>>> print(df.to_string())
                                   molecule                       experimental_system  measured_parameter           val
0  O=C(Nc1ccc(OCc2ccc(F)cc2Cl)c(F)c1)c1coc2cc(OCc3nnn[nH]3)ccc12 [Compound 1-5]  human GPR35 (Homo sapiens, UniProt Q9HC97)               pIC50        < 6.00
1  O=C(Nc1ccc(OC2COC2)c(F)c1)c1coc2cc(-c3nnn[nH]3)c(F)cc12 [Compound 1-28]  human GPR35 (Homo sapiens, UniProt Q9HC97)               pIC50  6.00 to 7.00
2  O=C(Nc1ccc(OCc2cc(F)cc(Cl)c2)cc1)c1coc2cc(-c3nnn[nH]3)c(F)cc12 [Compound 1-45]  human GPR35 (Homo sapiens, UniProt Q9HC97)               pIC50  6.00 to 7.00
3  O=C(Nc1ccc(OC2CCCC2)c(F)c1)c1coc2cc(-c3nnn[nH]3)c(F)cc12 [Compound 1-20]  human GPR35 (Homo sapiens, UniProt Q9HC97)               pIC50        ≥ 7.00

For the next question, use this molecule.
# input molecule: C[C@@H](Oc1ccc(NC(=O)c2coc3cc(-c4nnn[nH]4)c(F)cc23)cc1F)C(F)(F)F (single isomer, unassigned) [Compound 1-31] ; wanted: its pIC50
# output 6.00 to 7.00
